Target: Adenosine A2a receptor (human) membrane (Homo sapiens, UniProt P29274)
Construct: purchased PerkinElmer RBHA2AM400UA
Sequence (P29274 whole entry): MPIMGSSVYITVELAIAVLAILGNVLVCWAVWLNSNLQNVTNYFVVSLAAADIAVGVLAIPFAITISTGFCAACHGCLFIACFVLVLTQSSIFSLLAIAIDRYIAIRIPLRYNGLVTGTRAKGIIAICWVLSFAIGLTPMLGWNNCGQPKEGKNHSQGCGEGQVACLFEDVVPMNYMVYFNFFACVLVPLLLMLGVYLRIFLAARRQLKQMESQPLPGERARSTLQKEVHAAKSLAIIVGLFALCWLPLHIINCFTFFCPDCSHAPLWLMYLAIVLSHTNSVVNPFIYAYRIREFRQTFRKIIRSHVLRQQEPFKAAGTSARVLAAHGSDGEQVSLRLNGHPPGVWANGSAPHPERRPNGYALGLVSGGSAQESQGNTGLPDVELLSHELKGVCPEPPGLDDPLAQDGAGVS
Assay: Determination of competitive inhibition constant (Ki) for adenosine A2a receptor, [3H]-CGS-21680 radioligand
Type: binding
Details: selectivity ratio A1 over A2a
measurement_label: Ki(A1)/Ki(A2a)

## Input GET Ki(A1)/Ki(A2a) where system = Adenosine A2a receptor (human) membrane (Homo sapiens, UniProt P29274) and item = Cc1cc(-c2cnc(NC(=O)N3CCO[C@@H](C)C3)nc2-c2ccc(F)cc2)cc(Cl)n1
## Output 55.0

1: Cc1cc(-c2cnc(NC(=O)N3CCO[C@H](C)C3)nc2-c2ccc(F)cc2)cc(Cl)n1
2: Cc1cc(Cl)cc(-c2cnc(NC(=O)N3CCC(N4CCCCC4)CC3)nc2-c2ccc(F)cc2)c1
3: Cc1cc(-c2nnc(NC(=O)N3CCC(N4CCCCC4)CC3)nc2-c2ccc(C)o2)cc(Cl)n1
4: Cc1cc(Cl)cc(-c2cnc(NC(=O)N3CCC(N4CCCCC4)CC3)nc2-c2ccc(C)o2)c1
## Input Please list these in order of increasing Ki(A1)/Ki(A2a). Thank you! Provide the labels, sequenced as the question asks.
## Output 1, 4, 3, 2
(1: 107.4, 4: 240.7, 3: 403.8, 2: 639.1)

Data provenance is patent US20210395226A1.
